Recorded values, source PubChem BioAssay (NCI).

# Tested on: OVCAR-4 ovarian
# Measurement Description: NCI tumour cell line growth inhibition, 48 h
Would you kindly list TGI for each of these compounds?

Requested read-out TGI, target or system OVCAR-4 ovarian, entry NC1=CN2c3ccccc3N(CC(=O)O)C2C=C1 (configuration not stated)
> 100 µM

Requested read-out TGI, target or system OVCAR-4 ovarian, entry COc1ccc(OC)c(NS(=O)(=O)c2ccc3nc(C)n(NS(=O)(=O)c4cc(OC)ccc4OC)c(=O)c3c2)c1
> 100 µM

Requested read-out TGI, target or system OVCAR-4 ovarian, entry CC(C)(C)[Si](C)(C)OC1[C@@H](O[Si](C)(C)C(C)(C)C)[C@@H](CNC(=O)NC(=O)CCl)O[C@H]1n1cnc2c(NC(=O)Nc3ccccc3)ncnc21 (some centres not stated)
1.57 µM

Requested read-out TGI, target or system OVCAR-4 ovarian, entry CC(C)(C)C(=O)OCC1CCC(n2cnc3c(=O)[nH]c(N)nc32)O1 (configuration not stated)
> 100 µM

Requested read-out TGI, target or system OVCAR-4 ovarian, entry CC(C)C(/C=C/c1ccc(Cl)c(Cl)c1)=N\NC(=O)N/N=C(/C=C/c1ccc(Cl)c(Cl)c1)C(C)C
> 100 µM

Requested read-out TGI, target or system OVCAR-4 ovarian, entry O=C1CCCCCCCCCCC1CN1CCCCC1 (configuration not stated)
> 100 µM

Requested read-out TGI, target or system OVCAR-4 ovarian, entry Cc1cc(S(=O)(=O)Nc2nc(N)nc(N(C)C)n2)c(SCC(=O)O)cc1Cl
> 10 µM

Requested read-out TGI, target or system OVCAR-4 ovarian, entry COc1c(O)cc2c(c1O)C(=O)/C(=C/c1ccc(O)cc1)CO2
60.7 µM

Requested read-out TGI, target or system OVCAR-4 ovarian, entry Cc1ccc2oc(=O)c(C(=O)Nc3nc(C45CC6CC(CC(C6)C4)C5)cs3)cc2c1
> 100 µM

Requested read-out TGI, target or system OVCAR-4 ovarian, entry O=S(=O)(/N=C(\NO)Nc1ccc(Cl)cc1)c1cccc2nsnc12
> 100 µM

Requested read-out TGI, target or system OVCAR-4 ovarian, entry CCOC(=N)/C(=C1\OC(N)=C(c2ccc(Cl)cc2)C1=O)c1ccc(Cl)cc1
31.9 µM

Requested read-out TGI, target or system OVCAR-4 ovarian, entry COc1ccc(N2C(=O)C3c4[nH]c5ccc(F)cc5c4C4CCC(c5ccccc5)CC4C3C2=O)cc1 (configuration not stated)
32.6 µM

Requested read-out TGI, target or system OVCAR-4 ovarian, entry OCC(O)c1nc2ccc3[nH]ncc3c2c2c1CCCC2 (configuration not stated)
> 50 µM

Requested read-out TGI, target or system OVCAR-4 ovarian, entry C[N+]1(CCCl)CC[N+](C)(CCCl)CC1 (configuration not stated)
> 100 µM

Requested read-out TGI, target or system OVCAR-4 ovarian, entry CCOC(=O)c1sc2[n+](c1C)C(=O)/C(=C/c1ccc([N+](=O)[O-])cc1)S2
> 100 µM

Requested read-out TGI, target or system OVCAR-4 ovarian, entry CN(C)c1nc(=Nc2cccc(Cl)c2)ss1
29.8 µM

Requested read-out TGI, target or system OVCAR-4 ovarian, entry COC(C(=O)NCCCCNC(=O)C(OC)c1ccccc1)c1ccccc1 (configuration not stated)
> 100 µM

Requested read-out TGI, target or system OVCAR-4 ovarian, entry CCN(CC)CCCNC(=O)c1c2c(n3ccccc13)C(=O)c1ncccc1C2=O
0.903 µM

Requested read-out TGI, target or system OVCAR-4 ovarian, entry CC(C)(C)CC(C)(C)NCc1cc(C(C)(C)C)cc(CNC(C)(C)CC(C)(C)C)c1O
10.9 µM

Requested read-out TGI, target or system OVCAR-4 ovarian, entry Cc1ccc(/C(O)=C/c2nc3ccccc3s/c2=N/CS(=O)(=O)c2ccc(C)cc2)cc1
> 10 µM

Requested read-out TGI, target or system OVCAR-4 ovarian, entry CN(C)C=C1C(Cl)=C(C=O)CC(C=O)=C1Cl
27.9 µM

Requested read-out TGI, target or system OVCAR-4 ovarian, entry COc1cc2c(=O)cnoc2cc1O
> 100 µM

Requested read-out TGI, target or system OVCAR-4 ovarian, entry COc1ccc(OC)c2c1[nH]c(=O)c1c3ncccc3cn21
17.2 µM

Requested read-out TGI, target or system OVCAR-4 ovarian, entry CC/C(CC(=O)CCC(=O)Nc1ccccc1[N+](=O)[O-])=N/NC(=O)C[n+]1ccccc1
> 100 µM

Requested read-out TGI, target or system OVCAR-4 ovarian, entry CCOC(=O)CC1C(COC(=O)NC)OC(n2cnc3c(NC(=O)Nc4ccccc4)ncnc32)C1O[Si](C)(C)C(C)(C)C (configuration not stated)
> 100 µM

Requested read-out TGI, target or system OVCAR-4 ovarian, entry COC(=O)C(Cc1nc2ccccc2[nH]c1=O)C(=O)C(=O)Nc1ccc([N+](=O)[O-])cc1[N+](=O)[O-] (configuration not stated)
64.1 µM

Requested read-out TGI, target or system OVCAR-4 ovarian, entry FC(F)(F)c1cccc(-c2nc3ccccc3c3c2[C@@]2(N4CCCC4)CCCC[C@@H]32)c1
> 100 µM
